method-description: Oral bioavailability in nude mouse at 30 mg/kg by LC-MS/MS analysis
Assay type: ADME, organism-based
applied-conditions: in vivo
experimental-readout: bioavailability (%)
Write it as a number; the unit % goes unstated.

The reported value for COc1ccc(C(=O)NC[C@@H](O)CO)cc1/C=C/c1ccc(Cl)cc1 in terms of bioavailability is 100

====

System: HT-29
method-description: Antiproliferative activity against human HT-29 cells assessed as cell growth inhibition
Format: cell-based
Listed here: items and their measured IC50.

| compound-string | IC50 |
| --- | --- |
| COc1ccc(C(=O)NC[C@H](O)CO)cc1/C=C/c1ccc(Cl)cc1 | 16 µM |

COc1ccc(C(=O)NC[C@@H](O)CO)cc1/C=C/c1ccc(Cl)cc1 tested on HT-29 gave IC50: 10 µM

====

method-description: Clearance in mouse liver microsome at 5 uM after 60 mins by LC-MS/MS analysis
Type: ADME
applied-conditions: liver microsomes, read-out: CLH
Entries and their measured log10(microsomal CLint at 5 µM) follow.
// do not treat as linear: log10 of microsomal CLint at 5 µM, unit µL/min/mg

A selection of reference data follows.
| compound | log10(microsomal CLint at 5 µM) |
| --- | --- |
| COc1ccc(C(N)=O)cc1/C=C\c1ccc(Cl)cc1 | 2.74 |
| CCOc1ccc(C(N)=O)cc1/C=C/c1ccc(Cl)cc1 | 2.09 |
| COc1ccc(C(N)=O)cc1C(=O)Nc1ccc(Cl)cc1 | 1.20 |

log10(microsomal CLint at 5 µM) in this record for CN(C)CCOc1ccc(C(N)=O)cc1/C=C/c1ccc(Cl)cc1 : 2.46

Please fill in: log10(microsomal CLint at 5 µM) reported for COc1ccc(C(=O)NCC(O)CO)cc1/C=C/c1ccc(Cl)cc1 (stereo unspecified) = 1.00

The compound listed as COc1ccc(C(N)=O)cc1/C=C/c1ccc(Cl)cc1 has a reported log10(microsomal CLint at 5 µM) of 2.04

CCNC(=O)c1ccc(OC)c(/C=C/c2ccc(Cl)cc2)c1 has a reported log10(microsomal CLint at 5 µM) of 2.27

Looking up CNC(=O)c1ccc(OC)c(/C=C/c2ccc(Cl)cc2)c1 , I found its log10(microsomal CLint at 5 µM) recorded as 2.52

The reported value for NC(=O)c1ccc(OCCOCCO)c(/C=C/c2ccc(Cl)cc2)c1 in terms of log10(microsomal CLint at 5 µM) is 2.39

Sure, the documented log10(microsomal CLint at 5 µM) for CCCOc1ccc(C(N)=O)cc1/C=C/c1ccc(Cl)cc1 is 1.92

Summary for this compound, COc1ccc(C(N)=O)cc1COc1ccc(Cl)c(C)c1 : log10(microsomal CLint at 5 µM) is 2.62

====

method-description: Oral bioavailability in nude mouse at 10 mg/kg by LC-MS/MS analysis
Type: ADME, organism-based
applied-conditions: in vivo
experimental-readout: bioavailability (%)
Kindly answer with a numeric value in %, unit omitted.

get_value(item= COc1ccc(C(=O)NC[C@H](O)CO)cc1/C=C/c1ccc(Cl)cc1 , readout=bioavailability) returns 90

====

Tested on: HUVEC
method-description: Selectivity ratio of IC50 for human HCT116 cells to IC50 for HUVEC cells
experimental-readout: Ratio IC50
Respond using a number only.

| compound-string | Ratio IC50 |
| --- | --- |
| COc1ccc(C(N)=O)cc1/C=C/c1ccc([N+](=O)[O-])cc1 | 4.7 |
| COc1ccc(C(N)=O)cc1/C=C/c1ccc(Cl)c(Cl)c1 | 20 |
| COc1ccc(C(N)=O)cc1/C=C/c1ccc(Br)cc1 | 39 |
| COc1ccc(C(N)=O)cc1/C=C\c1ccc(Cl)cc1 | 10 |
| CCOc1ccc(C(N)=O)cc1/C=C/c1ccc(Cl)cc1 | 8.9 |

Lab entry: HUVEC assay, compound COc1ccc(C(N)=O)cc1/C=C/c1cccc(C)c1 , Ratio IC50 = 5.9

Record COc1ccc(C(N)=O)cc1/C=C/c1ccc(C)cc1 ; system HUVEC; Ratio IC50 = 30

GET /values?item= COc1ccc(C(C)=O)cc1COc1ccc(Cl)cc1 &system= HUVEC returns Ratio IC50: 33

Entry CCCOc1ccc(C(N)=O)cc1/C=C/c1ccc(Cl)cc1 , HUVEC data, Ratio IC50 value: 38

Log: HUVEC, compound CCc1ccc(OC)c(COc2ccc(Cl)c(C)c2)c1 , Ratio IC50 = 1.1

Entry COc1ccc(C(N)=O)cc1/C=C/c1cccc(Cl)c1 , tested on HUVEC, has a reported Ratio IC50 of 0.6

====

Test system: HUVEC
method-description: Selectivity ratio of IC50 for human HCT116 cells to IC50 for HUVEC cells
As shown below, each of these compounds has a reported Ratio IC50 value.
Lab note: jot the number down without any unit.

Example entries begin here.
| compound-string | Ratio IC50 |
| --- | --- |
| COc1ccc(C(N)=O)cc1/C=C/c1ccccc1 | 15 |
| COc1ccc(C(C)=O)cc1COc1ccc(Cl)c(C)c1 | 26 |
| COc1ccc(C(N)=O)cc1/C=C/c1ccc(C(F)(F)F)cc1 | 40 |
| COc1ccc(C(N)=O)cc1/C=C/c1ccc(Cl)cc1 | 82 |
| COc1ccc(C(N)=O)cc1/C=C/c1ccc(C#N)cc1 | 5.2 |

Ratio IC50 measured on COc1ccc(C(N)=O)cc1/C=C/c1ccc(F)cc1 = 11

Record summary for COc1ccc(C(N)=O)cc1/C=C/c1ccc(C(C)(C)C)cc1 : reported Ratio IC50 = 54

Reported Ratio IC50 for COc1ccc(C(N)=O)cc1/C=C/c1cccc(C#N)c1 was 0.4

So, COc1ccc(C(=O)NC(CO)CO)cc1/C=C/c1ccc(Cl)cc1 ? Its Ratio IC50 was 9.3

COc1ccc(C(N)=O)cc1/C=C/c1ccccc1C yielded Ratio IC50 of 4.8

So for COc1ccc(C(N)=O)cc1/C=C/c1ccccc1Cl , the logged Ratio IC50 turned out to be 2.2

Item: CCNC(=O)c1ccc(OC)c(/C=C/c2ccc(Cl)cc2)c1 | Ratio IC50: 94

Looking up CN1CCN(CCOc2ccc(C(N)=O)cc2/C=C/c2ccc(Cl)cc2)CC1 , I see its Ratio IC50 listed as 0.8

In plain terms, COC(=O)c1ccc(OC)c(COc2ccc(Cl)c(C)c2)c1 has a documented Ratio IC50 of 10

Lab note: CNC(=O)c1ccc(OC)c(/C=C/c2ccc(Cl)cc2)c1 gave Ratio IC50 of 84

# compound COc1ccc(C(=O)N(C)C)cc1/C=C/c1ccc(Cl)cc1 ; its Ratio IC50 = 14

Entry COc1ccc(C(=O)NCCO)cc1/C=C/c1ccc(Cl)cc1 , Ratio IC50 reported as 19

Kindly note the recorded Ratio IC50 for COc1ccc(/C=C/c2cc(C(N)=O)ccc2OC)cc1 , which is 2.2

Lab book: Ratio IC50 of COc1ccc(C(N)=O)cc1/C=C/c1ccccc1F noted as 13

Sample CN(C)CCOc1ccc(C(N)=O)cc1/C=C/c1ccc(Cl)cc1 ; Ratio IC50 observed: 0.6

====

method-description: Toxicity in human Calu6 cells xenografted po dosed BALB/c mouse assessed as body weight change administered qd for 11 days
applied-conditions: in vivo
experimental-readout: MTD at 264 h (mg/kg)
Could you give me the number in mg/kg? Just the number is fine.

# molecule CCN(CC)CCNC(=O)c1c(C)[nH]c(/C=C2\C(=O)Nc3ccc(F)cc32)c1C ; its MTD at 264 h = 80

====

method-description: AUC (0 to 24 hrs) in nude mouse at 30 mg/kg, po by LC-MS/MS analysis
Type: ADME, organism-based
Set-up: time < 24 hr, dose 30 mg/kg, route oral
applied-conditions: plasma
Recorded AUC(0-t) at 24 h, one value per entry.
Quick reminder: number only, in ng·h/mL, skip the unit.

| compound-string | experimental-value |
| --- | --- |
| COc1ccc(C(=O)NC[C@@H](O)CO)cc1/C=C/c1ccc(Cl)cc1 | 86400 |

Shifting focus to the molecule that follows.
Noted for COc1ccc(C(=O)NC[C@H](O)CO)cc1/C=C/c1ccc(Cl)cc1 : its AUC(0-t) at 24 h reads 90200

====

tested-target: Focal adhesion kinase 1 (Homo sapiens, UniProt Q05397)
Sequence (Q05397 whole entry): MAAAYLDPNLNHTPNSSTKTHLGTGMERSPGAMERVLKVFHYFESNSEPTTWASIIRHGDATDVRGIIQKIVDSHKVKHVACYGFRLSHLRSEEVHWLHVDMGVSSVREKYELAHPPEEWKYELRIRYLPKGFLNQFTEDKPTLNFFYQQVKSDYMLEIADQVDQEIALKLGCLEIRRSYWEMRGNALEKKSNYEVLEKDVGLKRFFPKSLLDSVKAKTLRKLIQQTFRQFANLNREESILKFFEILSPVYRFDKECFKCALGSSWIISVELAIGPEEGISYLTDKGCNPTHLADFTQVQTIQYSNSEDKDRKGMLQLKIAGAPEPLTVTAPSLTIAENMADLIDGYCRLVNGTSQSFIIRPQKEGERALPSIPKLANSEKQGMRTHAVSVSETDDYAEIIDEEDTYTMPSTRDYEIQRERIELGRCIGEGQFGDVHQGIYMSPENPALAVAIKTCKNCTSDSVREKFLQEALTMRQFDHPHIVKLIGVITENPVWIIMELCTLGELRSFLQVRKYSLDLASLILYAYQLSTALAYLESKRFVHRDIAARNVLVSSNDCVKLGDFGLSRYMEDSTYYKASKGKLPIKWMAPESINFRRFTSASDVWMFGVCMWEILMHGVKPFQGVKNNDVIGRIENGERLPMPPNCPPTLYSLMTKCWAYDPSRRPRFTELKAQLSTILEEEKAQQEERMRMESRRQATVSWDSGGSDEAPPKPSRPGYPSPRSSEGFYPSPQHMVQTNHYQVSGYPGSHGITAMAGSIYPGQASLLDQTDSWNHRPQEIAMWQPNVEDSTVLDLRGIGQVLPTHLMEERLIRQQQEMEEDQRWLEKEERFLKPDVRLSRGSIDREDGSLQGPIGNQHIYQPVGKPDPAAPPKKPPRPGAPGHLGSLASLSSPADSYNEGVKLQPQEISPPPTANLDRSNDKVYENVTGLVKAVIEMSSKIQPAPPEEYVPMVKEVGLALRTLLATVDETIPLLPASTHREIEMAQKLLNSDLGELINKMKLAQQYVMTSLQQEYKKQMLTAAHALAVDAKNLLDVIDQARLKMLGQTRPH
method-description: Inhibition of FAK
experimental-readout: IC50

Simply: COc1ccc(C(=O)NC[C@H](O)CO)cc1/C=C/c1ccc(Cl)cc1 , Focal adhesion kinase 1 (Homo sapiens, UniProt Q05397), IC50 = > 50 µM

====

# maps each entry to its pIC50
Test system: CWR22R
method-description: Antiproliferative activity against human 22Rv1 cells assessed as cell growth inhibition
Type: cell-based
pIC50 (log units): -log10 of the concentration in mol/L.

| compound-string | pIC50 |
| --- | --- |
| COc1ccc(C(=O)NC[C@H](O)CO)cc1/C=C/c1ccc(Cl)cc1 | 4.68 |

Next item in the queue.
pIC50 measured on COc1ccc(C(=O)NC[C@@H](O)CO)cc1/C=C/c1ccc(Cl)cc1 = 5.07
